Sequence of the target: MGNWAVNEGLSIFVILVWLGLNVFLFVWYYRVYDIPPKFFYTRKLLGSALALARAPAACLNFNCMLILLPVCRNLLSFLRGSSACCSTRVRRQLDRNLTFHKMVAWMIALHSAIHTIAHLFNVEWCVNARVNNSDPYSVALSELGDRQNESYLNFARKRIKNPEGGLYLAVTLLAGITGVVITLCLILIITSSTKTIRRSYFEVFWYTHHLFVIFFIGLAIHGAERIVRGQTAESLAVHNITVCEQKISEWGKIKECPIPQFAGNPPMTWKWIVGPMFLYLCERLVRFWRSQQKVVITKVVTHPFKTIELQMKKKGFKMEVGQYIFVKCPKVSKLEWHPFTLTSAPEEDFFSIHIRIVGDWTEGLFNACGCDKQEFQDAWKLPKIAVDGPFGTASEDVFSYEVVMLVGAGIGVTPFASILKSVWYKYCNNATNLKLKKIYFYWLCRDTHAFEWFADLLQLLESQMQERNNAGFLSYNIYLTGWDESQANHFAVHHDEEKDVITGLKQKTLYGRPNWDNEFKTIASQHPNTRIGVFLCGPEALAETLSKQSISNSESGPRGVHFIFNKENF
pIC50: −log10 of the molar value.
MEASURED QUANTITY: pIC50

INSERT INTO assay_data (smiles_code, measured_quantity, recorded_measurement) VALUES
  ('Clc1ncnc2c1nnn2Cc1ccccc1', 'pIC50', 5.29),
  ('O=C1c2ccccc2-c2cc(N3CCC4(CC3)OCCO4)nc3cccc1c23', 'pIC50', 5.29);

* * *

# SYSTEM: NADPH oxidase 2 (Homo sapiens)
# Sequence (P04839 whole entry): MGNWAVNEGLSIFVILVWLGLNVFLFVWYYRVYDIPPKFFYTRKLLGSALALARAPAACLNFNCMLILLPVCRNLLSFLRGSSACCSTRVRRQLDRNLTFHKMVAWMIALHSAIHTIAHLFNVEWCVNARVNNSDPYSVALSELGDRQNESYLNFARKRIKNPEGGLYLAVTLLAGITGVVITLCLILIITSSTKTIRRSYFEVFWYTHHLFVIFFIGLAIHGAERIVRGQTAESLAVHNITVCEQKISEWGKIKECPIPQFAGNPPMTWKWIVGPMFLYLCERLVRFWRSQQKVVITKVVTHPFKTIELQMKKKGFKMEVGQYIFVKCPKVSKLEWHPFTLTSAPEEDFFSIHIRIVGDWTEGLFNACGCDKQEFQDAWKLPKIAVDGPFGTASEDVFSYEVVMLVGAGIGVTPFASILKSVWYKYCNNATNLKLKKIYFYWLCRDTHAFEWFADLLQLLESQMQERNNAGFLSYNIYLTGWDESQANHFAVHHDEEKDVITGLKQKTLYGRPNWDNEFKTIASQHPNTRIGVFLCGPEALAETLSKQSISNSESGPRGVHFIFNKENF
# ASSAY COMMENT: Inhibition of human NOX2 by cell based assay
pEC50: −log10 of the molar value.
MEASURED QUANTITY: pEC50

A: c1ccc(-c2cc(NC3CCNCC3)nc3ccccc23)cc1
B: O=C1c2ccccc2-c2cc(N3CCC4(CC3)OCCO4)nc3cccc1c23
Which of the two gives a bigger number for pEC50: A or B ? Return value: the label identifying the chosen record.
B

* * *

Protein target, amino acids: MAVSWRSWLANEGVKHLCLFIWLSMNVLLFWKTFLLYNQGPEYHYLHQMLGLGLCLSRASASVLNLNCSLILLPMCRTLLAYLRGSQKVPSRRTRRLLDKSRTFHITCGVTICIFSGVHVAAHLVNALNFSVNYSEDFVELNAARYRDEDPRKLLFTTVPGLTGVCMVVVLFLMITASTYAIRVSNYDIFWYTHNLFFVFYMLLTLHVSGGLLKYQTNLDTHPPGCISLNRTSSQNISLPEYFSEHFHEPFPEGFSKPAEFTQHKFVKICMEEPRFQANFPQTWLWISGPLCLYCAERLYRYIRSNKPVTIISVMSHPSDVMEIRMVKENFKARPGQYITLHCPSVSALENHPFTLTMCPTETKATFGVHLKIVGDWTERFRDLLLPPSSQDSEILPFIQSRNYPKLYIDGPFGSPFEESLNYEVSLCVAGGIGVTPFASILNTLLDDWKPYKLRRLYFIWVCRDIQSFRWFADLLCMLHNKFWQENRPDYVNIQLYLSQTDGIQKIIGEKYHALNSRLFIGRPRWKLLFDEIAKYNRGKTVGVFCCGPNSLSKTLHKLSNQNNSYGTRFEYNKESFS
MEASURED QUANTITY: pIC50
Convention used: pIC50 is expressed as -log10 of the molar concentration.

Short answer for Clc1ncnc2c1nnn2Cc1ccccc1 : pIC50 was 5.24
